Target: human CCR8 (human, UniProt P51685 1-355)
Test: cell-based or functional assay
ASSAY ENDPOINT: residual hCCL1 (100 nM) Gi2 response, protocol #2, mAb 0.08 µg/mL (%)
Numbers only, in %.

Q: Any idea what its residual hCCL1 (100 nM) Gi2 response, protocol #2, mAb 0.08 µg/mL is? The binder is anti-CCR8 mAb 1-13 (antibody, V domains shown, Murine hybridoma mAb) VH: EVQLVETGGGLVQPKGSLKLSCAASGFTFNTNAMNWVRQAPGKGLEWVARIRSKSNYYATYYADSVKDRFTISRDDSQSMLYLQMNNLKTEDTAMYYCVRGREMGNYYSMDYWGQGTSVTVSS VL: DIVMTQAAPSVPVTPGESVSISCRSSKSLLHSNGNTYLYWFLQRPGQSPQLLIYRMSNLASGVPDRFSGSGSGTAFTLRISRVEAEDVGVYYCMQHLEYPFTFGSGTKLEIK
Result: 60

Please look at the following binder next.
Q: Using the record for anti-CCR8 mAb 1-10 (antibody, V domains shown, Murine hybridoma mAb) VH: EVQLQQSGPELVKPGASVKISCKTSGYTFTEYTIHWVKQSHGESLEWVGGINPNNGNTRYDQKFKGKATLTIDKSSSPAYMELRSLTSEDSAVYYCARVARSSGSGPYAMDYWGQGTSVTVSS VL: DVVMTQTPLSLPVSLGDQASISCRCTQSLLHTNGDTYLHWYLQKPGQSPKLLIYKVSNRFSGVPDRFSGSGSGTDFTLKISRVEAEDLGVYFCSQSTHVPYTFGGGTKLEIK , report its residual hCCL1 (100 nM) Gi2 response, protocol #2, mAb 0.08 µg/mL.
Result: 104

Origin of measurements: patent US20260132208A1
